This collection of values is drawn from PubChem BioAssay (Tox21).

# Assay name: qHTS assay to identify aromatase inhibitors - cell viability counter screen (AID 743084);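 further: cells stimulated with testosterone during compound exposure; nearly all actives have a fitted effect of over 55% in size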
# Particulars: MCF-7 aro ERE viability, CellTiter-Fluor, 24 h; series mostly up to 70.3 µM
Results filed as inconclusive are left out. Calls of active or inactive are those of the source. The call rests on the fitted dose curve; in most records, active means well fitted cell-killing curve with a large enough effect in the repeat runs; inconclusive means weak or mixed curves, or effect the other way; inactive means no such curve, though single readings can be large or run the other way.
Can you answer with just one of these options? active, inactive

Some entries whose results are on file:
O=C(O)CCCC/C=C(\c1ccccc1)c1cccnc1: inactive
CC1=C(/C=C/C(C)=C/C=C/C(C)=C/C=C/C=C(C)/C=C/C=C(C)/C=C/C2=C(C)CCCC2(C)C)C(C)(C)CCC1: inactive
CC(C)COC(=O)OCN1C(=O)CN(CCN2CC(=O)N(COC(=O)OCC(C)C)C(=O)C2)CC1=O: inactive

Look up the recorded call for `NC[C@H]1O[C@H](O[C@H]2[C@H](O)[C@@H](O[C@H]3O[C@H](CO)[C@@H](O)[C@H](N)[C@H]3O)[C@H](N)C[C@@H]2N)[C@H](N)C[C@@H]1O` in this test.
inactive

Look up the recorded call for `CC[C@H]1OC(=O)C[C@@H](O)[C@H](C)[C@@H](O[C@@H]2O[C@H](C)[C@@H](O[C@H]3C[C@@](C)(O)[C@@H](O)[C@H](C)O3)[C@H](N(C)C)[C@H]2O)[C@@H](CC=O)C[C@@H](C)C(=O)/C=C/C(C)=C/[C@@H]1CO[C@@H]1O[C@H](C)[C@@H](O)[C@@H](OC)[C@H]1OC` in this test.
inactive

Look up the recorded call for CCC1OC(=O)C[C@@H](O)[C@H](C)[C@@H](O[C@@H]2O[C@H](C)C[C@H](N(C)C)[C@H]2O)[C@@H](CC=O)C[C@@H](C)C(=O)/C=C/[C@]2(C)OC2C1C (some centres not stated) in this test.
active

Look up the recorded call for `NC(N)=NCc1cccc(I)c1` in this test.
inactive

Look up the recorded call for CC12CCC(C[N+](C)(CCC[N+](C)(C)C)C1)C2(C)C (configuration not stated) in this test.
inactive

Look up the recorded call for `CCN(CC)CCOC[C@H]1O[C@@H](O)[C@H](OCCN(CC)CC)[C@@H](O)[C@@H]1O` in this test.
inactive

Look up the recorded call for `C=CC[N@@+]12CC[C@@]34c5ccccc5N5/C=C6/[C@H]7C[C@H]8[C@@]9(CC[N@@+]8(CC=C)C/C7=C/CO)c7ccccc7N(/C=C(/[C@@H](C[C@@H]31)/C(=C\CO)C2)[C@H]54)[C@@H]69` in this test.
inactive

Look up the recorded call for CSCCC(N)C(=O)O (configuration not stated) in this test.
inactive

Look up the recorded call for `CN[C@@H]1[C@@H](O[C@H]2O[C@H](CO)[C@@H](N)[C@H](O)[C@H]2O)O[C@H]2C[C@@H](N)[C@@H](O[C@H]3[C@H](O)[C@@H](O)[C@H](N)C[C@@H]3N)O[C@@H]2[C@@H]1O` in this test.
inactive

Look up the recorded call for `Cc1onc(-c2c(F)cccc2Cl)c1C(=O)N[C@@H]1C(=O)N2[C@@H]1SC(C)(C)[C@@H]2C(=O)O` in this test.
inactive

Look up the recorded call for `O=C(O)[C@H]1CN(C/C=C/P(=O)(O)O)CCN1` in this test.
inactive

* * *

# Assay system: Nuclear receptor subfamily 1 group I member 2 (Homo sapiens) (UniProt O75469)
# Sequence (O75469 whole entry, looked up): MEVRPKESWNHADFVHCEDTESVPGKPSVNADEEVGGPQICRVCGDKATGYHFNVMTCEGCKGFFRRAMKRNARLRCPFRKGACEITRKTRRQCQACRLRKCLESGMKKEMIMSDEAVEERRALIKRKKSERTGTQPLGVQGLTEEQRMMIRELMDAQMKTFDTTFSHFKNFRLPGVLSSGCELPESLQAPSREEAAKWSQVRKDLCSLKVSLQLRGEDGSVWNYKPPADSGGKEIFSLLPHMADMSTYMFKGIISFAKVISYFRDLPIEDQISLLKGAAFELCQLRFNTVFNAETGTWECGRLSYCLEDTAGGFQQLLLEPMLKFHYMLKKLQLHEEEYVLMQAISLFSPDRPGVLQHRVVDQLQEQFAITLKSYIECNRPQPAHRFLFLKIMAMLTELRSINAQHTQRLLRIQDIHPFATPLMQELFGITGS
# Assay name: Human pregnane X receptor (PXR) small molecule agonists, qHTS assay (AID 1346982); further: nearly all actives have a fitted effect of over 35% in size
# Particulars: PXR-Luc HepG2, CYP3A4 luciferase reporter, 24 h; series mostly up to 92.4 µM
Inconclusive results are not listed. Calls of active or inactive are those of the source. Calls come from the whole dose curve; as a rule, active = well fitted activation curve with a large enough effect in the repeat runs; inconclusive = weak or mixed curves; inactive = no such curve, though single readings can be large or run the other way.
Can you answer with just one of these options? Y (active), N (inactive)

Some entries whose results are on file:
CCOC(=O)[C@H](O)[C@@H](O)C(=O)OCC: N
C=C(C)C1CCC(C)CC1O (configuration not stated): N

Look up the recorded call for Cc1ccc(C2OC[C@@H]3OC(c4ccc(C)cc4)O[C@H]([C@H](O)CO)[C@@H]3O2)cc1 (some centres not stated) in this test.
N

* * *

# Assay system: Cytochrome P450 1A2 (Homo sapiens) (UniProt P05177)
# Sequence (P05177 whole entry, looked up): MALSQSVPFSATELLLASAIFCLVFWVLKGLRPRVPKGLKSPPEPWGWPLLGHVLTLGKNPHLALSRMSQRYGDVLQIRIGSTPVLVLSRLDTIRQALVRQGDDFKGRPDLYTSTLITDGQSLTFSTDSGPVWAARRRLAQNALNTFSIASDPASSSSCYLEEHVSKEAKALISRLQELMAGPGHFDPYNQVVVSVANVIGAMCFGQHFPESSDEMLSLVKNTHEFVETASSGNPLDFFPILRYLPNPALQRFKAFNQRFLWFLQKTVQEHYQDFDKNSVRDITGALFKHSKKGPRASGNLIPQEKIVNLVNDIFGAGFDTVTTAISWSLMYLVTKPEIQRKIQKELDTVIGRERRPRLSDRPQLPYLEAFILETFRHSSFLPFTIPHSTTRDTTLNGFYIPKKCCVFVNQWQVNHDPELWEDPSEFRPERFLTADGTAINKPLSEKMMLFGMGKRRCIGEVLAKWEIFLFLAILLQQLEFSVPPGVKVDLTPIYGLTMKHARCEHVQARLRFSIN
# Assay name: Cytochrome P450 Family 1 Subfamily A Member 2 (CYP1A2) small molecule antagonists: luciferase reporter qHTS assay (AID 1671199); further: nearly all actives have a fitted effect of over 50% in size
# Particulars: P450-Glo CYP1A2 enzyme, luciferin luminescence, 1 h; series mostly up to 115 µM
Records with an inconclusive call do not appear. Active and inactive are the calls of the source. Calls come from the whole dose curve; as a rule, active = well fitted inhibition curve with a large enough effect in the repeat runs; inconclusive = weak or mixed curves; inactive = no such curve, though single readings can be large or run the other way.
Can you answer with just one of these options? active, inactive

Some entries whose results are on file:
C1CCSC1: inactive
CCOc1nc(F)cc2nc(S(=O)(=O)Nc3c(Cl)cccc3C(=O)OC)nn12: inactive
Cc1cc(Br)ccc1NC(=O)CCl: active
CC1(C)[C@H](C(=O)OCc2cccc(Oc3ccccc3)c2)[C@@H]1C=C(Cl)Cl: inactive
C=COCCCC: inactive

Now look at this entry.
Look up the recorded call for `CCCC(=O)c1cc(O)c(O)cc1O` in this test.
active

* * *

# Assay name: qHTS assay to identify small molecule agonists of the peroxisome proliferator-activated receptor delta (PPARd) signaling pathway - cell viability counter screen (AID 743211); further: nearly all actives have a fitted effect of over 55% in size
# Particulars: PPARd-bla HEK293H viability, CellTiter-Glo luminescence, 17 h; series mostly up to 62.6 µM
Records with an inconclusive call do not appear. The source made the active and inactive calls. Calls come from the whole dose curve; as a rule, active = well fitted cell-killing curve with a large enough effect in the repeat runs; inconclusive = weak or mixed curves; inactive = no such curve, though single readings can be large or run the other way.
Can you answer with just one of these options? active, inactive

c1ccc(-c2ccc(C(c3ccccc3)n3ccnc3)cc2)cc1 (centres undefined): active

Look up the recorded call for CCCCCCCCCCCCCCCCC(C(=O)O)C(O)(CC(=O)O)C(=O)O (centres undefined) in this test.
active

Look up the recorded call for `COc1c(Br)cc(Br)c(C)c1Br` in this test.
inactive

Look up the recorded call for `Cc1cc(Br)ccc1NC(=O)CCl` in this test.
active

* * *

# Assay name: qHTS assay to identify small molecule antagonists of the estrogen related receptor (ERR) signaling pathway - cell viability counter screen (AID 1224818);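 further: viability measured after 17.5 h of compound exposure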
# Particulars: ERR reporter cell line viability counter screen; series mostly up to 46.1 µM
# Experimental: National Center for Advancing Translational Sciences [NCATS] NIH Chemical Genomics Center [NCGC] U.S. Environmental Protection Agency [EPA] National Institutes of Environmental Health Sciences [NIEHS] National Toxicology Program [NTP] U.S. Food and Drug Administration [FDA] […] The ERR cells were dispensed at 2,000 cells/5 ul/well in 1536-well white plates using a Multidrop dispenser. […] After 30 min incubation at 37 C/5% CO2, the fluorescence intensity in the plates was measured using a ViewLux plate reader.
Results filed as inconclusive are left out. Calls of active or inactive are those of the source. The call rests on the fitted dose curve; in most records, active means well fitted cell-killing curve with a large enough effect in the repeat runs; inconclusive means weak or mixed curves; inactive means flat fitted curve, though single readings scatter.
Can you answer with just one of these options? active, inactive

Some entries whose results are on file:
Cn1ncc(S(=O)(=O)Cc2ccccc2)c(Br)c1=O: inactive
OC[C@H]1O[C@@H](n2cnc3c(NC4CCCC4)ncnc32)[C@H](O)C1O (some centres not stated): inactive
CCN(CC)CCCCNc1ncc2cc(-c3c(Cl)cccc3Cl)c(NC(=O)NC(C)(C)C)nc2n1: active
NCC(O)(CS(=O)(=O)O)c1ccc(Cl)cc1 (configuration not stated): inactive
Fc1ccc2[nH]c(CN3CCN(c4ccccn4)CC3)cc2c1: inactive
c1ccc(CN2CCC3(CCCc4ccccc43)CC2)cc1: inactive
Oc1cc2c(cc1O)C(c1ccccc1)CNCC2 (configuration not stated): inactive
NC(N)=NC(N)=Nc1ccccc1: inactive
NC/C=C\C(=O)O: inactive
COc1ccc(CCn2nnnc2C2(c3ccc(C)cc3)CC2)cc1: inactive

Look up the recorded call for CNC(=O)[C@H]1O[C@@H](n2cnc3c(NCc4cccc(I)c4)ncnc32)[C@H](O)C1O (some centres not stated) in this test.
inactive

Look up the recorded call for `O=C(O)c1cc2cc(F)ccc2[nH]1` in this test.
inactive

* * *

# Assay name: qHTS assay to identify small molecule HDAC inhibitors (AID 1259364);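 further: wild-type HCT-116 cells with endogenous class I/II HDAC activity; nearly all actives have a fitted effect of over 45% in size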
# Particulars: HCT-116 HDAC-Glo I/II luminescence, 2 h; series mostly up to 92.4 µM
Inconclusive results are not listed. Active and inactive are the calls of the source. The call rests on the fitted dose curve; in most records, active means well fitted inhibition curve with a large enough effect in the repeat runs; inconclusive means weak or mixed curves; inactive means flat fitted curve, though single readings scatter.
Can you answer with just one of these options? Yes for active, No for inactive

Nc1ccc(N)c([N+](=O)[O-])c1: No
O=S(=O)(c1ccc(OCc2ccccc2)cc1)c1ccccc1O: No
CCc1cccc(C)c1N(C(=O)C(=O)O)C(C)COC (centres undefined): No

Look up the recorded call for `CCN(CC)c1ccc(N=Nc2ccccc2)cc1` in this test.
Yes

Look up the recorded call for `CCC(=O)OC/C=C(\C)CCC=C(C)C` in this test.
No

Look up the recorded call for `ClC(c1ccccc1)(c1ccccc1)c1ccccc1` in this test.
No

Look up the recorded call for `O=C1OCc2ccccc21` in this test.
No

Look up the recorded call for `Cc1c[nH]c(=O)[nH]c1=O` in this test.
No

Look up the recorded call for `CC/C=C(\C)C=O` in this test.
No

Look up the recorded call for CC1CCC(C(C)(C)O)CC1 (centres undefined) in this test.
No
